Target: MCH-2R (Homo sapiens, UniProt Q969V1)
Sequence (Q969V1 whole entry): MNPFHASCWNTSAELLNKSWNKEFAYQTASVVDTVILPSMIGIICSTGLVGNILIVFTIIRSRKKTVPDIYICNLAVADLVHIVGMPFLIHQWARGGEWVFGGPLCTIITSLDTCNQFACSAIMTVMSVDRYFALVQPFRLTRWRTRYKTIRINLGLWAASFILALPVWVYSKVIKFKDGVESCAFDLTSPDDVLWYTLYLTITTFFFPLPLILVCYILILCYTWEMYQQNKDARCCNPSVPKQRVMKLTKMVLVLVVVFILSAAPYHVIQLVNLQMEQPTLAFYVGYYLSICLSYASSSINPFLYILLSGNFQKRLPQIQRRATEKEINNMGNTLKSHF
Assay: Aequorin bioluminescence functional assay, 293AEQ17/MCH-2R cells
Assay type: cell-based
Parameters: expressed in transfected cells; concentration or dose not given beside the values
Conditions: human MCH = 100
Consider the following molecules; for each one, report its MCH-2R Activation %.
The figure you give is taken to be in %; do not add the unit.

# input Item CSCC[C@@H]1NC(=O)[C@@H](NC(=O)[C@H](CCCNC(=N)N)NC(C)=O)CSSC[C@@H](C(N)=O)NC(=O)[C@@H]2CCCN2C(=O)[C@H](CCCNC(=N)N)NC(=O)[C@H](Cc2ccc(O)cc2)NC(=O)[C@H](C(C)C)NC(=O)[C@H](CCCNC(=N)N)NC(=O)[C@H](CCC(=O)O)NC(=O)[C@H](CC(C)C)NC1=O has what recorded MCH-2R Activation %?
# output 22

# input Would you mind telling me what MCH-2R Activation % value was observed for CSCC[C@@H]1NC(=O)[C@@H](NC(=O)[C@H](CCCNC(=N)N)NC(C)=O)CSSC[C@@H](C(N)=O)NC(=O)[C@@H]2CCCN2C(=O)[C@H](CCCNC(=N)N)NC(=O)[C@H](Cc2ccc(O)cc2)NC(=O)[C@H](C(C)C)NC(=O)[C@H](CCCNC(=N)N)NC(=O)[C@H](Cc2ccc3ccccc3c2)NC(=O)[C@H](CC(C)C)NC1=O ?
# output 105

# input Please give the measured MCH-2R Activation % for this molecule: CSCC[C@@H]1NC(=O)[C@@H](NC(=O)[C@@H](Cc2ccccc2)NC(C)=O)CSSC[C@@H](C(N)=O)NC(=O)[C@@H]2CCCN2C(=O)[C@H](CCCNC(=N)N)NC(=O)[C@H](Cc2ccc(O)cc2)NC(=O)[C@H](C(C)C)NC(=O)[C@H](CCCNC(=N)N)NC(=O)CNC(=O)[C@H](CC(C)C)NC1=O
# output 79
